TARGET DESC: serotonin-1 receptors (5-HT1A and/or 5-HT1B)
ASSAY REMARKS: radioligand binding assay for serotonin-1 receptor affinity (IC50)
CONDITION LABEL: receptor subtype not given
MEASURED QUANTITY: IC50

Q: Please look up its IC50: CCC(O)(c1ccc(N2CC[C@@H](Cc3ccccc3N3CCN(C)CC3)C2=O)cn1)C(C)O (stereo in doubt)
A: ≤ 100 nM
